- Test system: anti-hTNF mAb 210
- ASSAY PROCEDURE: Loop-loop 15-mer Matrix-scan of hTNF loop-peptides with mAb 210
- Type: binding
- DETAILS: mAb 210 10 ug/ml
Ends that are not written are not given here. * marks the point of attachment. code + = amino-terminal bromo-group; nBu = CCCC*
READOUT: labeling of spots (first peptide coupled next to second loop peptide)

// below: answered substances
# SUBSTANCE, TEST RESULT
rows = [
    ("+LSAIKSPCQRETPEZ ({code +}-LSAIKSPCQRETPEC(nBu)) [Peptide-95, 15-mer hTNF loop-peptide]", "Identified"),
    ("+LTHTISRIAVSYQTZ ({code +}-LTHTISRIAVSYQTX; not fully specified (residue 15); printed as +LTHTISRIAVSYQTZ; also: N- and C-terminal linker/cyclisation residues) [Peptide-77, 15-mer hTNF loop-peptide]", "Identified"),
    ("+LLSAIKSPCQRETPZ ({code +}-LLSAIKSPCQRETPC(nBu)) [Peptide-94, 15-mer hTNF loop-peptide]", "Identified"),
    ("+KSPCQRETPEGAEAZ ({code +}-KSPCQRETPEGAEAX; not fully specified (residue 15); printed as +KSPCQRETPEGAEAZ; also: N- and C-terminal linker/cyclisation residues) [Peptide-99, 15-mer hTNF loop-peptide]", "Identified"),
    ("SAIKSPCQRE (Human)", "identified"),
    ("+STHVLLTHTISRIAZ ({code +}-STHVLLTHTISRIAC(nBu)) [Peptide-72, 15-mer hTNF loop-peptide]", "Identified"),
    ("+FKGQGCPSTHVLLTZ ({code +}-FKGQGCPSTHVLLTC(nBu)) [Peptide-65, 15-mer hTNF loop-peptide]", "Identified"),
    ("+CPSTHVLLTHTISRZ ({code +}-CPSTHVLLTHTISRC(nBu)) [Peptide-70, 15-mer hTNF loop-peptide]", "Identified"),
]

Now take the following substance into account.
-- ask Name the recorded labeling of spots (first peptide coupled next to second loop peptide) for GQGCPSTHVLLT (Human) .
-- reply identified

====

- TESTED ON: lysozyme-biotin (Gallus gallus)
- Sequence (P00698 19-147): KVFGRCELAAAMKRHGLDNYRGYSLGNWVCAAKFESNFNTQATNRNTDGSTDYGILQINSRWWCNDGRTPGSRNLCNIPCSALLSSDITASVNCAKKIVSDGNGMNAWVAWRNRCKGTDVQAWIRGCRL
- ASSAY PROCEDURE: Loop-loop Matrix-scan of CDR loop-peptide pairs with lysozyme-biotin
- Type: binding
- DETAILS: lysozyme-biotin 100 ug/ml, in triplo
Ends that are not written are not given here. code + = amino-terminal bromo-group; mmt = not defined here
READOUT: binding activity with lysozyme-biotin

# SUBSTANCE, TESTED ON, READOUT, TEST RESULT
records = [
    ("+LHGNYDFDGZ (SEQ ID NO: 32)+LLVYYTTTLADGZ (SEQ ID NO: 51): loop-loop peptide pair: loop of HCDR3 of 3hfl.pdb and loop of LCDR2 1fdl.pdb (chain 1 {code +}-LHGNYDFDGK(mmt); chain 2 {code +}-LLVYYTTTLADGK(mmt); not fully specified; reading uncertain)", "lysozyme-biotin (Gallus gallus)", "binding activity with lysozyme-biotin", "highest binding activity"),
    ("+LHGNYDFDGZ (SEQ ID NO: 32)+RASESVDSYGNSFZ (SEQ ID NO: 44): loop-loop peptide pair: loop of HCDR3 of 3hfl.pdb and loop of LCDR1 1qfw.pdb (chain 1 {code +}-LHGNYDFDGK(mmt); chain 2 {code +}-RASESVDSYGNSFK(mmt); not fully specified; reading uncertain)", "lysozyme-biotin (Gallus gallus)", "binding activity with lysozyme-biotin", "highest binding activity"),
]

====

- Test system: anti-hTNF mAb 210
- ASSAY PROCEDURE: Loop-loop 15-mer Matrix-scan of hTNF loop-peptides with mAb 210
- Type: binding
- DETAILS: mAb 210 10 ug/ml
Ends that are not written are not given here. * marks the point of attachment. code + = amino-terminal bromo-group; nBu = CCCC*
READOUT: labeling of squares (firstly coupled loop-peptides)

# SUBSTANCE, TEST RESULT
measured = [
    ("+LSAIKSPCQRETPEZ ({code +}-LSAIKSPCQRETPEC(nBu)) [Peptide-95, 15-mer hTNF loop-peptide]", "Identified"),
    ("+LEKGDRLSAEINRPZ ({code +}-LEKGDRLSAEINRPX; not fully specified (residue 15); printed as +LEKGDRLSAEINRPZ; also: N- and C-terminal linker/cyclisation residues) [Sq-127, 15-mer hTNF loop-peptide]", "Identified"),
    ("+FKGQGCPSTHVLLTZ ({code +}-FKGQGCPSTHVLLTC(nBu)) [Peptide-65, 15-mer hTNF loop-peptide]", "Identified"),
]

====

- System: anti-hTNF mAb 210
- ASSAY PROCEDURE: Loop-loop 15-mer Matrix-scan of hTNF loop-peptides with mAb 210
- Format: binding
- DETAILS: mAb 210 10 ug/ml
Ends that are not written are not given here. code + = amino-terminal bromo-group
READOUT: labeling of squares (firstly coupled loop-peptides)

# SUBSTANCE, TEST RESULT
data = [
    ("GQGCPSTHVLLT (Human)", "labeled"),
    ("+EKGDRLSAEINRPDZ ({code +}-EKGDRLSAEINRPDX; not fully specified (residue 15); printed as +EKGDRLSAEINRPDZ; also: N- and C-terminal linker/cyclisation residues) [Sq-128, 15-mer hTNF loop-peptide]", "Identified"),
    ("SAIKSPCQRE (Human)", "labeled"),
    ("+YQTKVNLLSAIKSPZ ({code +}-YQTKVNLLSAIKSPX; not fully specified (residue 15); printed as +YQTKVNLLSAIKSPZ; also: N- and C-terminal linker/cyclisation residues) [Sq-88, 15-mer hTNF loop-peptide]", "Identified"),
]

====

- Test system: anti-hTNF mAb 210
- ASSAY PROCEDURE: Loop-loop 15-mer Matrix-scan of hTNF loop-peptides with mAb 210
- Type: binding
- DETAILS: mAb 210 10 ug/ml
Ends that are not written are not given here. * marks the point of attachment. code + = amino-terminal bromo-group; nBu = CCCC*
READOUT: labeling of spots (first peptide coupled next to second loop peptide)

# SUBSTANCE, TEST RESULT
rows = [
    ("KGDRLSAEINR (Human)", "identified"),
    ("+KGDRLSAEINRPDYZ ({code +}-KGDRLSAEINRPDYC(nBu)) [Peptide-129, 15-mer hTNF loop-peptide]", "Identified"),
    ("GQGCPSTHVLLTHTIS (Human)", "identified"),
    ("+QLEKGDRLSAEINRZ ({code +}-QLEKGDRLSAEINRC(nBu)) [Peptide-126, 15-mer hTNF loop-peptide]", "Identified"),
]

Where do the numbers come from? From patent US20120190564A1.
